# target-desc: Nuclear receptor subfamily 1 group I member 2 (Homo sapiens) (UniProt O75469)
# Sequence (O75469 whole entry, looked up): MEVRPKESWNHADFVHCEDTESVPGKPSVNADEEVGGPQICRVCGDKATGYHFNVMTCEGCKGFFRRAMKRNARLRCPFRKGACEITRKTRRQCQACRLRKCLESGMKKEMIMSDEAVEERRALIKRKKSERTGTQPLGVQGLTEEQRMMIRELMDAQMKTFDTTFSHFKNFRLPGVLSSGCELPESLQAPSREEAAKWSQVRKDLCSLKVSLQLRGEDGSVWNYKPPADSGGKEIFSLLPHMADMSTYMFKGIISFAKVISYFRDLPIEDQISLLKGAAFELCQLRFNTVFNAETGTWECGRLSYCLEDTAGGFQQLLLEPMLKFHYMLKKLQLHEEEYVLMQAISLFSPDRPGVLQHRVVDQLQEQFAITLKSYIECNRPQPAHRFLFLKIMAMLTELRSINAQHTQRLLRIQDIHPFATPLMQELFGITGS
# measurement-description: human PXR activators, counter-screen for AHR activator project, cell-based, luciferase luminescence (AID 434939);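 also: human hepatoma DPX-2 cells expressing full-length human PXR; 0% = DMSO and 100% = reference agonist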
# recorded-conditions: cell-based PXR reporter, at 11.6 µM, hits give high values
Hit rate of the full screen: of about 2,300 compounds, about 2,000 (87%) were called active. So high a share suggests a set chosen from earlier hits. The list is a sample of the results.
quantity-measured: activation (%)
Numeric only. Scale: %

Use the examples below as a reference point.
smiles-data	target-desc	activation, %
CCOC(=O)N1CCN(C(=O)c2cc3c(-c4ccc(Cl)cc4)nn(C)c3s2)CC1	Nuclear receptor subfamily 1 group I member 2 (Homo sapiens) (UniProt O75469)	48.9
CCSc1ccccc1C(=O)Nc1ccc2c(c1)OCO2	Nuclear receptor subfamily 1 group I member 2 (Homo sapiens) (UniProt O75469)	143
CSc1ncccc1C(=O)Nc1nc2ccc(F)cc2s1	Nuclear receptor subfamily 1 group I member 2 (Homo sapiens) (UniProt O75469)	11.7
CCn1c(NC(=O)c2nn(C)cc2Br)nc2ccccc21	Nuclear receptor subfamily 1 group I member 2 (Homo sapiens) (UniProt O75469)	22.6
COc1cc2ccccc2cc1C(=O)Nc1ccc(N2CCOCC2)cc1	Nuclear receptor subfamily 1 group I member 2 (Homo sapiens) (UniProt O75469)	30.4
COc1ccc(OC)c(-c2csc(-c3cccs3)n2)c1	Nuclear receptor subfamily 1 group I member 2 (Homo sapiens) (UniProt O75469)	21.7

Query: Item under review: Cc1nn(Cc2ccc(Cl)cc2)c(Cl)c1/C=N/NC(=O)c1cccnc1 . Reported activation?
Response: 39.9

Query: Would you kindly repeat that for Nc1[nH][nH]c(=O)c1N=Nc1ccc2c(c1)OCO2 ?
Response: 11.2

Query: Would you kindly repeat that for O=C(Cn1cncn1)N/N=C/c1c2ccccc2cc2ccccc12 ?
Response: 13.7

Query: Would you kindly repeat that for Cn1nc(-c2ccc(Cl)cc2)c2cc(C(=O)NCc3ccco3)sc21 ?
Response: 26.7

Query: Would you kindly repeat that for COc1cccc(OC)c1C(=O)Nc1ccc(N2CCCCC2)cc1 ?
Response: 53.1

----------
Here the recorded activation is given for each entry.
# target-desc: Nuclear receptor subfamily 1 group I member 2 (Homo sapiens) (UniProt O75469)
# measurement-description: human PXR activators, counter-screen for AHR activator project, cell-based, luciferase luminescence (AID 434939);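 also: human hepatoma DPX-2 cells expressing full-length human PXR; 0% = DMSO and 100% = reference agonist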
# recorded-conditions: cell-based PXR reporter, at 11.6 µM, hits give high values
About 2,000 (87%) of roughly 2,300 compounds were called active. The set was probably picked from earlier hits. The list is a sample of the results.

Use the examples below as a reference point.
compound	activation
CCOC(=O)c1nc(-c2ccc3c(c2)OCO3)[nH]c1C	34.2% (active)
c1cnc(N2CCN(c3ccc4ccccc4n3)CC2)nc1	36.7% (active)
Cc1nn2c3cc(N4CCOCC4)ccc3nc2c2ccccc12	63.2% (active)
OCCNc1nc(Nc2ccc(Cl)c(Cl)c2)nc2ccccc12	13.8% (active)
Cc1csc(NC(=S)Nc2cccc(Cl)c2)n1	21.6% (active)
CC(C(=O)N=Nc1c(O)n(C)c2ccc(Br)cc12)n1cnc2ccccc2c1=O (stereo not drawn)	60% (active)
Cc1ccnc(-n2sc3ccccc3c2=O)n1	25.7% (active)

Okay, now this compound:
Query: Item under review: Cc1ccc(NC(=O)Nc2cccnc2)cc1 . Reported activation?
Response: 19.7% (active)
